# System: HL-1
# ASSAY METHOD TEXT: relative cell viability (CellTiter-Glo) vs DMSO control (% of DMSO control); higher = more viable cells
# CONDITION INFO: oxygen condition: hypoxia 48 h (1% O2) + reoxygenation 24 h; 5000 nM
Where a name gives a salt, the structure may show the parent alone.
REPORTED PROPERTY: relative cell viability
Reply with just the number.

Query: Data request, read-out relative cell viability, for NS(=O)(=O)c1cc(Cl)c(Cl)c(S(N)(=O)=O)c1 [Dichlorphenamide]
Result: 115

Query: Fill in the blank: the reported relative cell viability of CC=CC1=C(C(=O)O)N2C(=O)[C@@H](NC(=O)[C@H](N)c3ccc(O)cc3)[C@H]2SC1 [Cefprozil hydrate] is ____.
Result: 104

Query: Fill blank: measured relative cell viability of the compound C#C[C@]1(OC(C)=O)CC[C@H]2[C@@H]3CCC4=C[C@@H](OC(C)=O)CC[C@@H]4[C@H]3CC[C@@]21C [Ethynodiol diacetate] is ____.
Result: 111

Query: relative cell viability for CNC[C@H](O)c1ccc(O)c(O)c1 [Epinephrine bitartrate] ?
Result: 6.86

Query: Item Cc1cccc(CN2CCN(C(c3ccccc3)c3ccc(Cl)cc3)CC2)c1 (stereo not drawn) [Meclizine 2HCl] has what recorded relative cell viability?
Result: 107

Query: Quick one: relative cell viability of COc1cc2c(cc1OC)CC(=O)N(CCCN(C)C[C@H]1Cc3cc(OC)c(OC)cc31)CC2 [Ivabradine HCl] ?
Result: 106

Query: Which relative cell viability reading was recorded for the compound CO[C@H]1C[C@@H]2CC[C@@H](C)[C@@](O)(O2)C(=O)C(=O)N2CCCC[C@H]2C(=O)O[C@H]([C@H](C)C[C@@H]2CC[C@@H](OCCO)[C@H](OC)C2)CC(=O)[C@H](C)/C=C(\C)[C@@H](O)[C@@H](OC)C(=O)[C@H](C)C[C@H](C)/C=C/C=C/C=C/1C ?
Result: 87.5

Query: GET /values?readout=relative cell viability&item= CC(C)(C(=O)O)c1ccc(C(O)CCCN2CCC(C(O)(c3ccccc3)c3ccccc3)CC2)cc1 (stereo not drawn) [Fexofenadine HCl]
Result: 99.8

Query: I am curious: what relative cell viability value has been reported for CNC[C@H](O)c1cccc(O)c1 [Phenylephrine HCl] ?
Result: 109

Query: Please give the measured relative cell viability for this compound: Nc1ccn([C@@H]2O[C@H](CO)[C@@H](O)[C@@H]2O)c(=O)n1
Result: 5.82

Query: Reported relative cell viability, compound C#C[C@]1(O)CC[C@H]2[C@@H]3CCC4=CC(=O)CC[C@@H]4[C@H]3CC[C@@]21C : ____
Result: 105

Query: What does the data say about its relative cell viability? Entry: Nc1nc2[nH]cnc2c(=S)[nH]1
Result: 24.5

Query: Sample CCCC(CCC)C(=O)O [Valproic acid sodium salt] — what was its relative cell viability?
Result: 111

Query: Recorded relative cell viability of CN(C)CCCN1c2ccccc2Sc2ccc(C(F)(F)F)cc21 [Triflupromazine HCl] , please.
Result: 106

Query: Which relative cell viability is reported for this compound? C=CCNC(N)=S
Result: 122

Query: Item under review: O=C1C(O)=C([C@H]2CC[C@H](c3ccc(Cl)cc3)CC2)C(=O)c2ccccc21 . Reported relative cell viability?
Result: 112

Query: Look up relative cell viability: Cc1cccc(C)c1OCC(C)N (stereo not drawn) [Mexiletine HCl]
Result: 121

Query: Recorded relative cell viability of CCOC(=O)[C@H](CCc1ccccc1)N[C@H]1CCCN2CCC[C@@H](C(=O)O)N2C1=O [Cilazapril monohydrate] , please.
Result: 113

Query: Report relative cell viability for [I-].[K+] [Potassium iodide] please.
Result: 108

Query: Which value of relative cell viability has been reported for C[C@@H](O)[C@H]1C(=O)N2C(C(=O)OCOC(=O)C(C)(C)C)=C(SC3CN(C4=NCCS4)C3)[C@H](C)[C@H]12 in the records?
Result: 91.2

Query: Any idea what relative cell viability was measured for CCOC(=O)[C@H](CCc1ccccc1)N[C@H]1CS[C@H](c2cccs2)CN(CC(=O)O)C1=O [Temocapril HCl] ?
Result: 112

Query: Quick one: relative cell viability of C[C@H](Cc1cc2c(c(C(N)=O)c1)N(CCCO)CC2)NCCOc1ccccc1OCC(F)(F)F ?
Result: 105

Query: Need relative cell viability of NS(=O)(=O)c1cc2c(cc1C(F)(F)F)NC(Cc1ccccc1)NS2(=O)=O (stereo not drawn) [Bendroflumethiazide] , thanks.
Result: 106

Query: Given O=C(c1cc(Cc2n[nH]c(=O)c3ccccc23)ccc1F)N1CCN(C(=O)C2CC2)CC1 , state its recorded relative cell viability.
Result: 61.1

Query: Entry under review: CCOC(=O)[C@H](CCc1ccccc1)N[C@@H](C)C(=O)N1Cc2cc(OC)c(OC)cc2C[C@H]1C(=O)O [Moexipril HCl] . Reported relative cell viability?
Result: 67.2

Query: Sample Cc1ccc(S(=O)(=O)NC(=O)NN2CC3CCCC3C2)cc1 (stereo not drawn) [Gliclazide] — what was its relative cell viability?
Result: 104

Query: Tell me the measured relative cell viability of CCOC(=O)C1=C(COCCN)NC(C)=C(C(=O)OC)C1c1ccccc1Cl (stereo not drawn) [Amlodipine] , please.
Result: 100

Query: Data request, read-out relative cell viability, for COc1ccc(Cl)cc1C(=O)NCCc1ccc(S(=O)(=O)NC(=O)NC2CCCCC2)cc1 [Glyburide]
Result: 104

Query: Entry CCCc1nc(C(C)(C)O)c(C(=O)OCc2oc(=O)oc2C)n1Cc1ccc(-c2ccccc2-c2nnn[nH]2)cc1 : reported relative cell viability = ?
Result: 105

Query: Can you share its relative cell viability? I mean this compound: COc1ccccc1OCCNCC(O)COc1cccc2[nH]c3ccccc3c12 (stereo not drawn)
Result: 108

Query: Fill in the blank: the reported relative cell viability of CC(C)C(=O)Nc1ccc([N+](=O)[O-])c(C(F)(F)F)c1 [Flutamide] is ____.
Result: 38.7

Query: Endpoint output: relative cell viability of CC/C(=C(\c1ccccc1)c1ccc(OCCN(C)C)cc1)c1ccccc1 [Tamoxifen Citrate] . Value?
Result: 108

Query: Recorded relative cell viability of CC(C)NCC(O)COc1ccc(COCCOC(C)C)cc1 (stereo not drawn) , please.
Result: 101
